# experiment.description: in vitro
# measurement.conditions: human, hela cells, % viability
attribute.measured: viability at 28.5 h, 10 µM (%)

* COCCC(=O)NCC1Cc2cc(F)cc(-c3ccc(C(C)=O)s3)c2O1 (centres unmarked) [CBK306742] | 109
* N#Cc1cccc(Cn2cc(NC(=O)NCCc3cccs3)cn2)c1 [CBK043824] | 94.9
* CC1CN(C(=O)OC(C)(C)C)CCN1c1nc2ccccc2nc1O (centres unmarked) [CBK003877C] | 116
* CC1CCN(S(=O)(=O)c2ccc(Oc3ccc([N+](=O)[O-])cc3)cc2)CC1 [CBK261774] | 98
* Cc1cc(C)cc(NC(=O)C2CC(=O)N=C(NCc3ccccc3)N2)c1 (centres unmarked) [CBK269054] | 87.1

###

# experiment.description: in vitro
# measurement.conditions: human, hela cells, % viability
Labelling field: enter condition met if recorded viability at 28.5 h, 10 µM is less than 90%. Enter condition not met if it equals or exceeds that cut-off.

* CC/C(=N\C(N)=O)c1ccccc1 [CBK009865] | condition met
* O=C(Nc1cccnc1)c1ncoc1-c1ccc(F)cc1 [CBK104357] | condition not met
* Nc1csc(C2CCOCC2)n1 [CBK019258] | condition met
* Cc1cccc(C)c1NC(=O)c1nccnc1C(=O)O [CBK260915] | condition not met
* CNC(=O)c1nc(NC)oc1C [CBK059214] | condition not met
* CC1CCN(CC(CS(=O)(=O)c2ccc([N+](=O)[O-])cc2)N2CCC(C)CC2)CC1 (stereo not drawn) [CBK267506] | condition met
* CCOC(=O)c1nc(C)sc1-c1ccnn1S(C)(=O)=O [CBK007130] | condition not met
* c1ccc2c(c1)nc1n2CCN1CCN1CCCCC1 [CBK278283C] | condition not met
* O=C(NCC1COc2ccccc2O1)c1ccc(-c2ccccc2)nc1NCCc1ccccn1 (stereo not drawn) [CBK076554] | condition not met
* O=S(=O)(Nc1cccc(C(F)(F)F)c1)c1ccc(OC(F)(F)F)cc1 [CBK043554] | condition met
* O=C(Nc1ccncc1)c1ccc(N2C(=O)c3ccccc3C2=O)cc1 [CBK287803] | condition not met
* Fc1ccccc1-c1nc2cnccn2c1NCc1ccco1 [CBK283681] | condition met

###

# experiment.description: in vitro
# measurement.conditions: human, hela cells, % viability
Each entry below lists one item and its recorded viability at 28.5 h, 10 µM value.
attribute.measured: viability at 28.5 h, 10 µM (%)

- O=C(CSc1nnc(-c2ccc(Cl)cc2Cl)o1)c1ccc2c(c1)OCCO2 [CBK268839]: 113
- Cc1ccccc1NC(=O)Nc1cccc(F)c1 [CBK105831]: 88.3
- Cc1csc(NC(=O)CN2CCC(c3ccccc3F)CC2)n1 [CBK283569]: 109
- Cc1nn(C)cc1-c1cncn1CCCC(C)(C)CO [CBK281492]: 86.1
- C=CCN1C(=O)C2(CC(=O)N(Cc3ccccc3)C2=O)c2cc(OC)ccc21 (centres unmarked) [CBK075281]: 103

###

# experiment.description: in vitro
# measurement.conditions: human, hela cells, % viability
attribute.measured: viability at 28.5 h, 10 µM (%)

• O=C(CCSS(=O)(=O)O)N1CCc2ccccc21 [CBK260892N] = 94.4
• CC(=O)Nc1ccc(CNc2ncccc2OC(F)F)cc1 [CBK306016] = 95
• C=CCNc1nccnc1-c1cnc(OC)nc1OC [CBK036922] = 91.7
• COc1cccc(CN2CCN(Cc3ccco3)[C@@H](C)C2)c1 [CBK284265] = 80.3
• O=C(NC(c1ccccc1)c1ccccc1)C1(c2ccccc2)CCCC1 [CBK149536] = 96.8
• Nc1ccc(-c2cnc(NCc3ccc4c(c3)OCO4)c(C(=O)Nc3ccc4c(c3)OCCO4)c2)cc1 [CBK138480T] = 106
• Cc1c(C(C)N)cnn1-c1ccc(C#N)cc1 (stereo not shown) [CBK305869] = 80.9
• Cn1c(=O)n(CC(=O)N2CCc3ccccc32)c2cccnc21 [CBK283792] = 106
• O=C(c1cc(S(=O)(=O)N2CCOCC2)ccc1Cl)N1CCCCC1CO (stereo not shown) [CBK304579] = 88.6
• COc1cccc(C2SCC(=O)Nc3[nH]nc(C)c32)c1 (stereo not shown) [CBK287981] = 78.2

###

# experiment.description: in vitro
# measurement.conditions: human, hela cells, % viability
attribute.measured: viability at 28.5 h, 10 µM (%)

* CN(C)CCN(C)C(=O)C1CCN(c2cncc(-c3ccc(O)cc3)n2)CC1 [CBK126928T] | 88
* O=C(Oc1ccc(F)cc1C(=O)/C=C/c1ccccc1F)c1cccc([N+](=O)[O-])c1 [CBK264859] | 86.9
* COc1cc(OC)nc(C(NC(=O)C2CCN(Cc3ccccc3F)CC2)c2ccc(Cl)cc2)n1 (stereo not shown) [CBK148152] | 98
* CCCc1ccc(-c2cc(C(=O)NCc3cccnc3)c3ccccc3n2)cc1 [CBK300494] | 92.6

###

# experiment.description: in vitro
# measurement.conditions: human, hela cells, % viability
Labelling field: enter fulfilled if recorded viability at 28.5 h, 10 µM is less than 90%. Enter not fulfilled if it equals or exceeds that cut-off.

• N#Cc1cccc(C(=O)N2CCC(NC(=O)c3ccc(F)cc3)CC2)c1 = not fulfilled
• Cc1nc[nH]c1CN(CCCn1ccnc1)CC1CC=CCC1 (stereo not shown) = fulfilled
• Cc1nnc(CSc2nnc(-c3ccc(Cl)cc3)[nH]2)o1 = not fulfilled
• Cc1csc(CC(C)n2cc(Cl)cn2)n1 (stereo not shown) = not fulfilled
• COc1ccc(CN(CCN2CCOCC2)C(=O)Nc2cccnc2)cc1OC = not fulfilled
• CN(C)CC1CCCN(C(=O)C2C3CCCCC32)C1 (stereo not shown) = fulfilled
• COc1ccc(C(=O)C2CCCCC23NCCN3)cc1 (stereo not shown) = not fulfilled
• O=C(c1ccc2nccnc2c1)N1CCCc2ccccc21 = not fulfilled

###

# experiment.description: in vitro
# measurement.conditions: human, hela cells, % viability
attribute.measured: viability at 28.5 h, 10 µM (%)

• Nc1ncc(-c2cccc(/C=C/C(=O)O)c2)nc1NCc1ccco1 = 98.7
• CCCn1ccnc1-c1cn(CCc2cc(O)nc(C)n2)nn1 = 114
• COc1cccc(/C=C(/C#N)c2ccc(F)cc2)c1OCc1cccc(C(=O)O)c1 = 102
• NS(=O)(=O)c1ccc(NC(=O)/C=C/c2cccc([N+](=O)[O-])c2)cc1 = 99.5
• Cc1ccc(C(Cc2ccsc2)NS(=O)(=O)c2ccc3[nH]c(=O)[nH]c(=O)c3c2)nc1 (centres unmarked) = 88.6

###

Each entry below lists one item and its recorded viability at 28.5 h, 10 µM value.
# experiment.description: in vitro
# measurement.conditions: human, hela cells, % viability
attribute.measured: viability at 28.5 h, 10 µM (%)

* CCN(C(=O)c1cnc2n(c1=O)CCS2)c1ccccc1 [CBK287384] | 103
* CCOCCCNC(=O)c1cnn2c(C)c(Cc3cccnc3)c(C)nc12 [CBK162152] | 100
* Cc1cnn(CCCNC(=S)Nc2ccc(S(N)(=O)=O)cc2)c1 [CBK266957] | 90.7
* O=C(c1ccccc1)c1ccc(S(=O)(=O)N2CCCN(Cc3c[nH]nc3-c3ccccc3)CC2)cc1 [CBK062773] | 85.1
* Cc1ccc(NC(=O)c2cc(C(=O)Nc3ccc(C)c(C)c3)cc(N3C(=O)c4ccccc4C3=O)c2)cc1C [CBK261328] | 93.8
* O=S(=O)(Nc1ccc2ncccc2c1)c1ccc(OC(F)(F)F)cc1 [CBK045339] | 99.7
* O=C1c2ccc(-n3c(=O)c4cc5c(=O)n(-c6ccc7c(c6)C(=O)N(c6ccccc6)C7=O)c(=O)c5cc4c3=O)cc2C(=O)N1c1ccccc1 [CBK262136] | 88.1
* C#CCN1CC[C@]2(c3ccc(OC)c(OC)c3)CC[C@@H](NC(=O)Nc3ccc(F)c(F)c3)C[C@H]12 [CBK056657] | 104
* CN(C)CCN1C(=O)C(O)=C(C(=O)c2ccc(S(=O)(=O)N(C)C)cc2)C1c1cccnc1 (stereo not shown) [CBK264729] | 99.7
* Cc1cc(C)n(-c2ccc3nnc(CCCC(=O)O)n3n2)n1 [CBK307630] | 87.1
* Nc1ccc(/C=C/c2cccc(C(=O)O)n2)cc1 [CBK267711] | 89.7
* Cc1ccc(OC(C)C(=O)N2CCCc3c(cnn3C)C2)cc1 (stereo not shown) [CBK282242] | 98.2
* COc1ccc(OC(=O)COc2nc3c(C)cc(C)nc3[nH]2)cc1 [CBK269290] | 106
* CCN1CCN(CC(=O)C(C#N)c2ccccc2)CC1 (stereo not shown) [CBK269423] | 92.8
* Nc1nc(OCCOc2ccccc2)cnc1-c1ccc2c(c1)OCO2 [CBK145097] | 83.4
* COc1cc(OC)c(OC)cc1CN1CCN(S(=O)(=O)c2ccc(C)cc2)CC1 [CBK263323] | 92.4
* Cc1cc(NC(=O)CCC2CCCCC2)nc2c1c(=O)oc1ccccc12 [CBK291125] | 111
* CCc1[nH]nc2c1C(C1C=CCCC1)C(C#N)=C(N)O2 (stereo not shown) [CBK270236] | 92.9
* Nc1cc2ccccc2c(-c2ccc3c(c2)OCCCO3)n1 [CBK085722] | 102
* O=C(c1ccc2[nH]c(=O)[nH]c2c1)N1CCC2(CCN(C(=O)c3cc(F)c(F)cc3F)C2)C1 (stereo not shown) [CBK131407] | 95.9
* COc1cccc(CNC23CC4CC(CC(C4)C2)C3)c1OCc1ccccc1 [CBK268873C] | 92
* Cc1cccc(N(CC(=O)NCc2ccco2)S(=O)(=O)c2ccccc2)c1 [CBK263571] | 87.7
* O=[N+]([O-])c1ccc(N2CCN(Cc3ccccc3)CC2)cc1NCc1ccccc1 [CBK045841] | 86.9
* Cn1ncnc1CNc1ccc(S(=O)(=O)N2CCCCCC2)cc1 [CBK305278] | 90.1
* COc1ncc(-c2ccc(Nc3ccc(N4CCOCC4)cc3)nc2)c(OC)n1 [CBK036988] | 95
* OC1(C2CNc3ccccc3C2)CCNCC1 (stereo not shown) [CBK283847] | 110
* O=C(NCCN1CCCC1)c1cc2cc(F)ccc2[nH]1 [CBK107278] | 106
* CCOC(=O)c1cnc(SC)nc1N1CCOCC1 [CBK018971] | 90.7
* Cc1nc(S(=O)(=O)N2CCC(C(=O)N3CCCCC3)CC2)cn1C [CBK305963] | 89.4
* CC(C)(C)C(=O)NC(c1nccs1)C1CCN(C(=O)C2CC2)CC1 (stereo not shown) [CBK284678] | 88.8
* CC(C)(C)C(=O)N1CCC(n2nc(C3CC3)ccc2=O)CC1 [CBK284242] | 84.6
* CNC(=O)CC1SC(NC2CC3C=CC2C3)=NC1=O (stereo not shown) [CBK047491] | 90.7
* CCOC(=O)C1CCN(c2cccc(F)c2C#N)CC1 [CBK304558] | 101
* FC(F)(F)C1=NC(C(F)(F)F)=NP(N2CCOCC2)(N2CCOCC2)=N1 [CBK261042] | 94.3
* COc1cccc(NC(=O)C2C(C(=O)O)C3C=CC2C32CC2)c1 (stereo not shown) [CBK287106] | 81.6
* CC(C)Cc1ccc(-c2cc(NCCc3ccccn3)ncn2)cc1 [CBK091088] | 99.6
* CC1CCc2nn(CCNC(=O)c3cccs3)c(=O)cc2C1 (stereo not shown) [CBK284483] | 97.4
